Exercise: for every item that follows, state its recorded pIC50.
- Tested on: NCI-H1299
- ASSAY NOTES: Antiproliferative activity against human NCI-H1299 cells assessed as reduction in cell proliferation measured after 72 hrs by celltiter-glo assay
- Type: functional, cell-based
- EXPERIMENTAL SETUP: NCI-H1299, 72 h
// returns pIC50 (minus log10 of molar concentration), number only

Look up pIC50: `Cl.NC1(c2ccc(-c3nc4ccn5c(=O)[nH]nc5c4cc3-c3ccccc3)cc2)CCC1`
4.57

Reported pIC50 for `C#Cc1cccc(Nc2ncnc3cc(OCCOC)c(OCCOC)cc23)c1` : what is it?
4.68
